Reference source for all entries: patent US20100210649A1

system: H1650; experiment: Non Small Cell Lung Cancer proliferation assay (Alamar Blue reduction), H1650; type: cell-based, human; settings: Homo sapiens, NCI-H1650; primary screening; 10 μM compound in 1% DMSO (v/v); read-out: percentage inhibition H1650
ATTRIBUTE_MEASURED: inhibition at 10 µM (%)

STRUCTURE | TARGET_OF_ASSAY | ATTRIBUTE_MEASURED | NUMERIC_READOUT
O=c1c(Cl)c(Cl)cnn1-c1ccc(Cl)c(C(F)(F)F)c1 | H1650 | inhibition at 10 µM | 45
Cc1cc(-n2ccc3c(C#N)c(=O)n(-c4ccccc4)nc3c2=O)[nH]n1 | H1650 | inhibition at 10 µM | 1
N=c1c(-c2nc3ccccc3[nH]2)cc(C(=O)c2cccs2)nn1-c1ccc(Cl)cc1 | H1650 | inhibition at 10 µM | -12
CCOc1cnn(-c2ccccc2)c(=O)c1Cl | H1650 | inhibition at 10 µM | -15
O=c1cc(N2CCOCC2)cnn1-c1ccccc1 | H1650 | inhibition at 10 µM | 8
Cc1cccc(-n2ncc(Cl)c(Cl)c2=O)c1 | H1650 | inhibition at 10 µM | 48
O=C(COc1cnn(-c2ccccc2)c(=O)c1Cl)c1ccc(Br)cc1 | H1650 | inhibition at 10 µM | 29
O=C(COCCOc1cnn(-c2ccccc2)c(=O)c1Cl)c1ccccc1 | H1650 | inhibition at 10 µM | 12
O=c1c(SCc2ccccc2Cl)c(SCc2ccccc2Cl)cnn1-c1ccccc1 | H1650 | inhibition at 10 µM | -14
CCc1c(C(=O)OC)nn(-c2ccc(C)cc2)c(=O)c1C#N | H1650 | inhibition at 10 µM | -2
COc1cc(Cl)nn(-c2ccccc2)c1=O | H1650 | inhibition at 10 µM | -2
COc1nn(-c2ccccc2)c(=O)c(Cl)c1Cl | H1650 | inhibition at 10 µM | 51
Nc1ccc(Sc2cnn(-c3ccccc3)c(=O)c2Cl)cc1 | H1650 | inhibition at 10 µM | 7
O=c1c(SCc2ccccc2)c(SCc2ccc(Cl)cc2)cnn1-c1ccccc1 | H1650 | inhibition at 10 µM | -4
O=C(COc1cnn(-c2ccccc2)c(=O)c1Cl)c1ccc(Cl)cc1 | H1650 | inhibition at 10 µM | 6
COc1cnn(-c2ccccc2)c(=O)c1SCc1ccc(Cl)cc1Cl | H1650 | inhibition at 10 µM | -4
COc1cnn(-c2ccc(C)cc2)c(=O)c1SCc1ccccc1 | H1650 | inhibition at 10 µM | -21
COc1c(Cl)cnn(-c2ccc(Cl)c(C(F)(F)F)c2)c1=O | H1650 | inhibition at 10 µM | 13
CCSc1cnn(-c2ccccc2)c(=O)c1SCC | H1650 | inhibition at 10 µM | 18
COc1ccc(-n2nc(Cl)ccc2=O)cc1 | H1650 | inhibition at 10 µM | -2
Cc1ccc(-n2nc(C(=O)O)c(/C=C/c3ccc(Cl)cc3Cl)c(C#N)c2=O)cc1C | H1650 | inhibition at 10 µM | -15
Cc1ccc(-n2ncc(SCc3ccccc3)c(Cl)c2=O)cc1 | H1650 | inhibition at 10 µM | 20
O=c1c(SCc2ccccc2)c(N2CCOCC2)cnn1-c1ccccc1 | H1650 | inhibition at 10 µM | 65
COc1cnn(-c2ccccc2)c(=O)c1S | H1650 | inhibition at 10 µM | 101
O=c1c(Cl)c(Cl)cnn1-c1cccc(Cl)c1 | H1650 | inhibition at 10 µM | -13
